Values compiled from patent US11566002B2.

test system: HBV rcDNA; assay: HepDE19 assay with bDNA quantitation of HBV rcDNA; format: cell-based, hepatitis B virus; conditions: HepDE19 cells, Tet-free medium, 7 day-incubation, rcDNA measured by Quantigene 2.0 bDNA assay, top concentration 25 μM; read-out: DE-19 bDNA EC50
pEC50: −log10 of the molar value.
Could you label it yes if measured pEC50 is 6 or higher, and no otherwise?

compound	study-system	group
CCn1cc2c(c1C(=O)Nc1ccc(F)c(Cl)c1)CCC2NC(=O)OCc1ncn(C)n1 (single isomer, unassigned) [Compound 20]	HBV rcDNA	yes
Cn1ncc(COC(=O)NC2CCc3c2cn(C)c3C(=O)Nc2ccc(F)c(Cl)c2)n1 (single isomer, unassigned) [Compound 129]	HBV rcDNA	yes
Cn1cnc(COC(=O)NC2CCCCc3c2cn(C)c3C(=O)Nc2ccc(F)c(Cl)c2)n1 (single isomer, unassigned) [Compound 86]	HBV rcDNA	yes
Cn1c(C(=O)Nc2ccc(F)c(Cl)c2)c2c(c1C(F)(F)F)C(NC(=O)OCc1nc[nH]n1)CC2 (single isomer, unassigned) [Compound 126]	HBV rcDNA	no
CNC(=O)NC1CCc2c1c[nH]c2C(=O)Nc1ccc(F)c(Cl)c1 (single isomer, unassigned) [Compound 11]	HBV rcDNA	no
Cn1cc2c(c1C(=O)Nc1ccc(F)c(Cl)c1)CCC2NC(=O)OC[C@@H]1CCC(=O)N1 (single isomer, unassigned) [Compound 119]	HBV rcDNA	no
